Record form. Attribute: GI50. Fill in for each entry.
- Measurement protocol: Growth inhibition of c-met-amplified human Hs 746T cells after 72 hrs by MTS assay
- Assay type: functional
- Assay conditions: Hs746T
Kindly answer with a numeric value in nM, unit omitted.

Problem: # get_value(readout='GI50', item= `O=c1[nH]ccc2c(Cc3nnc4ccc(-c5cccnc5)nn34)cccc12` )
Solution: 400

Problem: # get_value(readout='GI50', item= `O=c1[nH]ccc2c(Cc3nnc4ccc(-c5ccccc5)nn34)cccc12` )
Solution: 71

Problem: # get_value(readout='GI50', item= `O=c1[nH]ccc2c(Cc3nnc4ccc(-c5cccc(F)c5)nn34)cccc12` )
Solution: 130

Problem: # get_value(readout='GI50', item= `O=c1[nH]ccc2c(Cc3nnc4ccc(-c5cccc(O)c5)nn34)cccc12` )
Solution: 600

Problem: # get_value(readout='GI50', item= `N#Cc1cccc(-c2ccc3nnc(Cc4cccc5c(=O)[nH]ccc45)n3n2)c1` )
Solution: 59

Problem: # get_value(readout='GI50', item= `COc1cccc(-c2ccc3nnc(Cc4cccc5c(=O)[nH]ccc45)n3n2)c1` )
Solution: 100

Problem: # get_value(readout='GI50', item= `O=c1[nH]ccc2c(Cc3nnc4ccc(-c5ccsc5)nn34)cccc12` )
Solution: 170

Problem: # get_value(readout='GI50', item= `O=c1[nH]ccc2c(Cc3nnc4ccc(-c5cccc(Cl)c5)nn34)cccc12` )
Solution: 53

Problem: # get_value(readout='GI50', item= `Cn1cc(-c2ccc3nnc(Cc4cccc5c(=O)[nH]ccc45)n3n2)cn1` )
Solution: 64

The measured values listed here are drawn from ChEMBL document CHEMBL1921685.
